- system_tested: Bromodomain-containing protein 4 (Homo sapiens)
- assay_procedure: TR-FRET Assay: Compound dilution series were prepared in DMSO via a 3-fold serial dilution from 2.5 mM to 42 nM. Compounds were then diluted 6:100 in assay buffer (20 mM Sodium Phosphate, pH 6.0, 50 mM NaCl, 1 mM EDTA, 0.01% Triton X-100, 1 mM DTT) to yield 3× working solutions. Six microliters (μL) of the working solution was then transferred to white, low-volume assay plates (Costar #3673). A 1.5× assay mixture containing His-tagged bromodomain, Europium-conjugated anti-His antibody (Invitrogen PV5596) and the Alexa-647-conjugated probe molecule was also prepared. Twelve μL of this solution were added to the assay plate to reach a final volume of 18 μL. The final concentration of 1× assay buffer contains 2% DMSO, 50 μM−0.85 nM compound, 8 nM bromodomain, 1 nM antibody and 100 or 30 nM probe (for BDI or BDII, respectively). After a one-hour incubation at room temperature, TR-FRET ratios were determined using an Envision multilabel plate reader (Ex 340, Em 495/520).TR-FRET data were normalized to the means of 24 no-compound controls (high) and 8 controls containing 1 μM un-labeled probe (low). Percent inhibition was plotted as a function of compound concentration and the data were fit with the 4 parameter logistic equation to obtain IC50s Inhibition constants (Ki) were calculated from the IC50s, probe Kd and probe concentration. Typical Z′ values were between 0.65 and 0.75. The minimum significant ratio was determined to evaluate assay reproducibility (Eastwood et al., (2006) J Biomol Screen, 11: 253-261).
attribute_measured: Ki (µM)
Numbers only, in µM.

Here are 2 compounds together with their reported answers.
compound: Cc1[nH]c(-c2cccc3ccccc23)c2c1C(=O)CCC2
Ki / µM: 0.943
--
compound: Cc1[nH]c(-c2ccccc2Oc2ccccc2)c2c1C(=O)CC(CC(C)C)C2 (stereo not drawn)
Ki / µM: 3.62

Consider the record given below.
Request: Data request, read-out Ki, for Cc1[nH]c(-c2ccccc2CN2C(=O)c3ccccc3C2=O)c2c1C(=O)CCC2
Result: 6.22

Attribution: ChEMBL document CHEMBL5726441
